Target: T1, xMcm10-ID (Xenopus laevis, UniProt Q5EAW4 229-427)
T1 sequence: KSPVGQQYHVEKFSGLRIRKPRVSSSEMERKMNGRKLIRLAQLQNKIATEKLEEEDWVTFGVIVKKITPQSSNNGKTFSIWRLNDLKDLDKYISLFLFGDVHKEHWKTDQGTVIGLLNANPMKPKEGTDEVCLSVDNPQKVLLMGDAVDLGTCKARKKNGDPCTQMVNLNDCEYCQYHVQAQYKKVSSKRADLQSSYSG
Assay: fluorescence polarization; FP: 20 mM Tris-HCl, 100 mM NaCl, 5% glycerol, 0.01% Triton, pH 7.5, RT 60 min, 12.5 nM probe (0.1% DMSO in HTS)
Details: protein: recombinant; label: 5'-6-FAM; single strand
QUANTITY_MEASURED: pKd
// pKd is dimensionless: -log10 of concentration (M)

pKd reading for ATGGTAGGCA (ssDNA) [5'-6FAM 10-mer] : 5.89
